Every entry's value here was drawn from the NIST ThermoML archive (doi:10.1016/j.jct.2016.08.008).

Protocol: activity coefficient (dimensionless); of the first substance listed, at infinite dilution; xn = mol fraction of the nth substance listed
Measurement parameters: 318.15 K; 101.33 kPa; Liquid; Chromatography; x1 = 0
Measured attribute: activity coefficient

// solved cases for activity coefficient follow
CO [methanol] + CCCCCCCCCCCCn1cc[n+](C)c1.O=S(=O)([N-]S(=O)(=O)C(F)(F)F)C(F)(F)F	1.29
C=CCCC [1-pentene] + CCCCCCCCCCCCn1cc[n+](C)c1.O=S(=O)([N-]S(=O)(=O)C(F)(F)F)C(F)(F)F	1.82
COC(C)=O [methyl ethanoate] + CCCCCCCCCCCCn1cc[n+](C)c1.O=S(=O)([N-]S(=O)(=O)C(F)(F)F)C(F)(F)F	0.503
CCC(C)CC [3-methylpentane] + CCCCCCCCCCCCn1cc[n+](C)c1.O=S(=O)([N-]S(=O)(=O)C(F)(F)F)C(F)(F)F	2.77
C#CCCC [1-pentyne] + CCCCCCCCCCCCn1cc[n+](C)c1.O=S(=O)([N-]S(=O)(=O)C(F)(F)F)C(F)(F)F	1.07

What value of activity coefficient has been reported for the following compound? c1ccsc1 [thiophene] + CCCCCCCCCCCCn1cc[n+](C)c1.O=S(=O)([N-]S(=O)(=O)C(F)(F)F)C(F)(F)F
0.559

Item CCCCCO [pentan-1-ol] + CCCCCCCCCCCCn1cc[n+](C)c1.O=S(=O)([N-]S(=O)(=O)C(F)(F)F)C(F)(F)F has what recorded activity coefficient?
1.52
